Experiment: Dark toxicity against human HepG2 cells assessed as reduction in cell viability incubated overnight by MTT assay
Assay type: cell-based
// reported IC50 for each item listed

A selection of reference data follows.
C=Cc1c(C)c2cc3nc(c(CC(=O)O)c4[nH]c(cc5nc(cc1[nH]2)C(C)=C5CC)c(C)c4C(=O)O)[C@@H](CCC(=O)NCCNC(=O)CCC(=O)O[C@@H]1O[C@@H]2O[C@@]4(C)CC[C@H]5[C@H](C)CC[C@@H]([C@H]1C)[C@@]25OO4)[C@@H]3C    29.1 µM
C=Cc1c(C)c2cc3nc(c(CC(=O)NCCNC(=O)CCC(=O)O[C@@H]4O[C@@H]5O[C@@]6(C)CC[C@H]7[C@H](C)CC[C@@H]([C@H]4C)[C@@]57OO6)c4[nH]c(cc5nc(cc1[nH]2)C(C)=C5CC)c(C)c4C(=O)O)[C@@H](CCC(=O)O)[C@@H]3C    57 µM
C=Cc1c(C)c2cc3nc(c(CC(=O)NCCNC(=O)CCC(=O)O[C@@H]4O[C@@H]5O[C@@]6(C)CC[C@H]7[C@H](C)CC[C@@H]([C@H]4C)[C@@]57OO6)c4[nH]c(cc5nc(cc1[nH]2)C(C)=C5CC)c(C)c4C(=O)NCCNC(=O)CCC(=O)O[C@@H]1O[C@@H]2O[C@@]4(C)CC[C@H]5[C@H](C)CC[C@@H]([C@H]1C)[C@@]25OO4)[C@@H](CCC(=O)NCCNC(=O)CCC(=O)O[C@@H]1O[C@@H]2O[C@@]4(C)CC[C@H]5[C@H](C)CC[C@@H]([C@H]1C)[C@@]25OO4)[C@@H]3C    12.9 µM
C[C@H]1[C@H](OC(=O)CCC(=O)O)O[C@@H]2O[C@@]3(C)CC[C@H]4[C@H](C)CC[C@@H]1[C@@]24OO3 [ARTESUNATE]    6.5 µM

INPUT: Fill blank: measured IC50 of the compound C=Cc1c(C)c2cc3nc(c(CC(=O)O)c4[nH]c(cc5nc(cc1[nH]2)C(C)=C5CC)c(C)c4C(=O)NCCNC(=O)CCC(=O)O[C@@H]1O[C@@H]2O[C@@]4(C)CC[C@H]5[C@H](C)CC[C@@H]([C@H]1C)[C@@]25OO4)[C@@H](CCC(=O)O)[C@@H]3C is ____.
OUTPUT: 36.6 µM
